molecular target: coagulation factor Xa (FXa) (UniProt P00742;P00742 P00742:41-179,P00742:235-488)
Sequence (P00742 41-179, chain 1 of 2): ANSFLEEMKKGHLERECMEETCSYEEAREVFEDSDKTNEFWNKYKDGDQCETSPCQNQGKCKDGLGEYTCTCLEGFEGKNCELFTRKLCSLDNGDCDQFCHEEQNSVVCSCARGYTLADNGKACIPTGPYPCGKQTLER
Sequence (P00742 235-488, chain 2 of 2): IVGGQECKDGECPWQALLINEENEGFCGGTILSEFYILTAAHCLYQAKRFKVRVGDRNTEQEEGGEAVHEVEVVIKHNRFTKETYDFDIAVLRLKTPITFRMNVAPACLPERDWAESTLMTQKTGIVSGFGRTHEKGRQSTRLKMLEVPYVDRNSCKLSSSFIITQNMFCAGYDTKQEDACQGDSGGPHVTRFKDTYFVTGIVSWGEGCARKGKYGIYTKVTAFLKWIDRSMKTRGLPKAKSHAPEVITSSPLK
Note to self: Kd under 10 nM means MET, ties and anything higher get NOT MET.

Worked cases, answers included:
E10-12 (ssRNA) RNA: GGGAGAGAGGAAGAGGGAUGGGAAAAUAGCCCCAGCGAGAUAAUACUUGGCCCCGCGAACACCAUAACCCAGAGGUCGAU : NOT MET
F11-6 (ssRNA) RNA: GGGAGAGAGGAAGAGGGAUGGGCCAGCAACGUCACACGAACGGAAUACCCCCCAUUGAAAACCAUAACCCAGAGGUCGAU : NOT MET
E10-6 (ssRNA) RNA: GGGAGAGAGGAAGAGGGAUGGGGCCGUCGCCAGGAAUCAAACUGCUACUCCAUCCCGGGCACAUAACCCAGAGGUCGAU : NOT MET
D7-5 (ssRNA) RNA: GGGAGAGAGGAAGAGGGAUGGGAAACUAGCCUCAGCGAGAUAAUACUUGGCCCCGCUACUACCAUAACCCAGAGGUCGAU : NOT MET
E10-11 (ssRNA) RNA: GGGAGAGAGGAAGAGGGAUGGGCCAGAAGCGCUCACUACAACGUUGAACCCCCCGUCCACACCAUAACCCAGAGGUCGAU : NOT MET

Please let me know if F11-7 (ssRNA) RNA: GGGAGAGAGGAAGAGGGAUGGGAAAAUAGCCCCAGCGAGAUAAUACUUGGCCCCGCUAUUACCAUAACCCAGAGGUCGAU shows Kd below 10 nM. MET

Please let me know if D8-1 (ssRNA) RNA: GGGAGAGAGGAAGAGGGAUGGGAAAAUAGCCCCAGCGAGAUGAUACUUGGCCCCGCUAAUACCAUAACCCAGAGGUCGAU shows Kd below 10 nM. MET

Please let me know if D4-9 (ssRNA) RNA: GGGAGAGAGGAAGAGGGAUGGGUAAGUUGCCCCAGCGAGAUAGUACUUGGCCCCGCUACUAACAUAACCCAGAGGUCGAU shows Kd below 10 nM. NOT MET

Please let me know if D7-9 (ssRNA) RNA: GGGAGAGAGGAAGAGGGAUGGGUAAAUAGCCCCAGCGAGAUUCUACUUGGCCCCGCUACUACCAUAACCCAGAGGUCGAU shows Kd below 10 nM. MET

Please let me know if D6-2 (ssRNA) RNA: GGGAGAGAGGAAGAGGGAUGGGAAAAUAGCCCCAGCGAGAUAAUACUUGGCCCCGCUACAACCAUAACCCAGAGGUCGAU shows Kd below 10 nM. MET

Please let me know if D6-7 (ssRNA) RNA: GGGAGAGAGGAAGAGGGAUGGGUGCAUAGCCCCAGCGAGAUAAUACUUGGCCCCGCUACAACCAUAACCCAGAGGUCGAU shows Kd below 10 nM. NOT MET

Please let me know if D4-3 (ssRNA) RNA: GGGAGAGAGGAAGAGGGAUGGGUAAAUAGCCCCAGCGAGAUAAUACUUGGCCCCGCAACUACCAUAACCCAGAGGUCGAU shows Kd below 10 nM. NOT MET

Please let me know if E10-4 (ssRNA) RNA: GGGAGAGAGGAAGAGGGAUGGGUCUUAGAUAUAGAACUCCGAGAGGACUGACCGUACAGAACCAUAACCCAGAGGUCGAU shows Kd below 10 nM. NOT MET

Please let me know if D7-1 (ssRNA) RNA: GGGAGAGAGGAAGAGGGAUGGGAGAAUGGCCCCAGCGAGAUUAUACUUGGCCCCGCCAAUACCAUAACCCAGAGGUCGAU shows Kd below 10 nM. MET
